Let's look at some compounds and their measured EC50.
- target_system: human FSH receptor (Homo sapiens)
- assay_name: hFSHRago (CHO luc): agonistic activity at the human FSH receptor expressed in CHO cells, CRE-luciferase reporter
- condition_details: CHO cells stably transfected with human FSH receptor and CRE/luciferase reporter; 4 hours of incubation

| record_smiles | target_system | EC50, nM |
| --- | --- | --- |
| COc1cc2c(cc1OCCNS(C)(=O)=O)-c1c(-c3cccs3)cc(C(=O)N(C)C(C)(C)C)n1CC2 | human FSH receptor (Homo sapiens) | 16 |
| COc1cc2c(cc1O)-c1c(-c3cccs3)cc(C(=O)N(C)C(C)(C)C)n1CC2 | human FSH receptor (Homo sapiens) | 356 |
| COCC(=O)Nc1cc2c(cc1OC)CCn1c(C(=O)N(C)C(C)(C)C)cc(-c3cccs3)c1-2 | human FSH receptor (Homo sapiens) | 1.4 |
| COc1cc2c(cc1OC)-c1c(-c3cccs3)cc(C(=O)N3CCC[C@@H](N(C)C(C)=O)C3)n1CC2 | human FSH receptor (Homo sapiens) | 30.9 |

----------
- target_system: human FSH receptor (Homo sapiens, UniProt P23945)
- assay_name: hFSHRago (CHO luc): agonistic activity at the human FSH receptor expressed in CHO cells, CRE-luciferase reporter
- condition_details: CHO cells stably transfected with human FSH receptor and CRE/luciferase reporter; 4 hours of incubation
Threshold 3 nM. EC50 below it: label 1. EC50 at it or above: label 0.

| compound | classification |
| --- | --- |
| COc1cc2c(cc1NS(C)(=O)=O)-c1c(-c3cccs3)cc(C(=O)N3CCCC3(C)C)n1CC2 | label 1 |
| COc1cc2c(cc1OC(C)C)-c1c(-c3cccs3)cc(C(=O)N3CCCN(C(=O)C4CCCO4)CC3)n1CC2 (stereo not drawn) | label 1 |
| COc1cc2c(cc1OCCNC(C)=O)-c1c(-c3cccs3)cc(C(=O)N(C)C(C)(C)C)n1CC2 | label 0 |
| COc1cc2c(cc1OC)-c1c(-c3cccs3)cc(C(=O)N3CCCN(C(=O)C4CCC4)CC3)n1CC2 [Example 111a] | label 1 |
| COc1cc2c(cc1OC(C)C)-c1c(-c3cccs3)cc(C(=O)N(C)N3CCCC3)n1CC2 | label 0 |
| COc1cc2c(cc1OC(C)C)-c1c(-c3cccs3)cc(C(=O)N3CC4CC(CN(C(C)=O)C4)C3)n1CC2 | label 0 |
| COc1cc2c(cc1OC(C)C)-c1c(-c3cccs3)cc(C(=O)N(C)N(C)C)n1CC2 | label 0 |
| COc1cc2c(cc1N1CCOCC1)-c1c(-c3cccs3)cc(C(=O)N(C)C(C)(C)C)n1CC2 | label 0 |
| COc1cc2c(cc1OC(F)F)-c1c(-c3nccs3)cc(C(=O)N(C)C(C)(C)C)n1CC2 | label 0 |
| COc1cc2c(cc1OC(C)C)-c1c(-c3cccs3)c(C=O)c(C(=O)N(C)C(C)(C)C)n1CC2 | label 1 |
| COc1cc2c(cc1OC(C)C)-c1c(-c3cccs3)cc(C(=O)N3CCCC3c3cccnc3)n1CC2 (stereo not drawn) | label 0 |
| CC#Cc1cc2c(cc1OC)CCn1c(C(=O)N(C)C(C)(C)C)cc(-c3cccs3)c1-2 [Example 85b] | label 1 |
| COc1cc2c(cc1CCCO)-c1c(-c3cccs3)cc(C(=O)N(C)C(C)(C)C)n1CC2 [Example 91d] | label 1 |
| COc1cc2c(cc1OC(C)C)-c1c(-c3cccs3)cc(C(=O)N3CCCN(C(=O)CSC)CC3)n1CC2 | label 1 |

----------
- target_system: human FSH receptor (Homo sapiens)
- assay_name: hFSHRago (CHO luc): agonistic activity at the human FSH receptor expressed in CHO cells, CRE-luciferase reporter
- condition_details: CHO cells stably transfected with human FSH receptor and CRE/luciferase reporter; 4 hours of incubation
pEC50: −log10 of the molar value.
Quick rule: pEC50 of at least 8 means Y, below that means N.

| molecule | classification |
| --- | --- |
| COc1cc2c(cc1CC(C)C)-c1c(-c3nccs3)cc(C(=O)N(C)C(C)(C)C)n1CC2 | N |
| CON=Cc1c(-c2cccs2)c2n(c1C(=O)N(C)C(C)(C)C)CCc1cc(OC)c(OC(C)C)cc1-2 | Y |
| COc1cc2c(cc1OC(C)C)-c1c(-c3cccs3)cc(C(=O)C(C)N3CCOCC3)n1CC2 (centres unmarked) | N |
| COCc1cc2c(cc1OC)CCn1c(C(=O)N(C)C(C)(C)C)cc(-c3cccs3)c1-2 [Example 121b] | Y |
| CCOc1cc2c(cc1OC)CCn1c(C(=O)N(CC)C(C)C)c(C(C)=O)c(-c3cccs3)c1-2 | N |
| COc1cc2c(c(OC)c1)-c1c(-c3ccsc3)cc(C(=O)N(C)C(C)(C)C)n1CC2 | N |

----------
- target_system: human FSH receptor (Homo sapiens)
- Construct: expressed in transfected cells
- assay_name: hFSHRago (CHO luc): agonistic activity at the human FSH receptor expressed in CHO cells, CRE-luciferase reporter
- Type: cell-based
- condition_details: CHO cells stably transfected with human FSH receptor and CRE/luciferase reporter; 4 hours of incubation
Returns: string. Value is yes (1) if measured EC50 is below 100 nM, and no (0) if it is greater than or equal to it.

| molecule | target_system | classification |
| --- | --- | --- |
| COc1cc2c(cc1OCCCN)-c1c(-c3cccs3)cc(C(=O)N(C)C(C)(C)C)n1CC2 [Example 70g] | human FSH receptor (Homo sapiens) | no (0) |
| COc1cc2c(cc1OCC1CCCO1)-c1c(-c3cccs3)cc(C(=O)N3CCCN(C(C)=O)CC3)n1CC2 (stereo not shown) [Example 78] | human FSH receptor (Homo sapiens) | yes (1) |
| COc1cc2c(cc1OC(C)C)-c1c(-c3cccs3)cc(C(=O)N3CCCN(C(=O)C4CCC4)CC3)n1CC2 [Example 7c] | human FSH receptor (Homo sapiens) | yes (1) |
| C#Cc1cc(C(=O)N2CCCN(C(=O)c3ccccc3)CC2)n2c1-c1cc(OC)c(OC)cc1CC2 [Example 109] | human FSH receptor (Homo sapiens) | yes (1) |
| COc1cc2c(cc1CCC(C)(C)O)-c1c(-c3cccs3)cc(C(=O)N(C)C(C)(C)C)n1CC2 [Example 92] | human FSH receptor (Homo sapiens) | yes (1) |
| COc1cc2c(cc1OC(C)C)-c1c(-c3cccs3)cc(C(=O)N(C)C3C[C@@H]4CN(C(C)=O)C[C@@H]4C3)n1CC2 (stereo partly shown) [Example 24] | human FSH receptor (Homo sapiens) | no (0) |
| CCN(C(=O)c1cc(-c2ccsc2)c2n1CCc1cc(OC)c(OC)c(F)c1-2)C(C)C [Example 116] | human FSH receptor (Homo sapiens) | no (0) |

----------
- target_system: human FSH receptor (Homo sapiens, UniProt P23945)
- Sequence (P23945 18-695): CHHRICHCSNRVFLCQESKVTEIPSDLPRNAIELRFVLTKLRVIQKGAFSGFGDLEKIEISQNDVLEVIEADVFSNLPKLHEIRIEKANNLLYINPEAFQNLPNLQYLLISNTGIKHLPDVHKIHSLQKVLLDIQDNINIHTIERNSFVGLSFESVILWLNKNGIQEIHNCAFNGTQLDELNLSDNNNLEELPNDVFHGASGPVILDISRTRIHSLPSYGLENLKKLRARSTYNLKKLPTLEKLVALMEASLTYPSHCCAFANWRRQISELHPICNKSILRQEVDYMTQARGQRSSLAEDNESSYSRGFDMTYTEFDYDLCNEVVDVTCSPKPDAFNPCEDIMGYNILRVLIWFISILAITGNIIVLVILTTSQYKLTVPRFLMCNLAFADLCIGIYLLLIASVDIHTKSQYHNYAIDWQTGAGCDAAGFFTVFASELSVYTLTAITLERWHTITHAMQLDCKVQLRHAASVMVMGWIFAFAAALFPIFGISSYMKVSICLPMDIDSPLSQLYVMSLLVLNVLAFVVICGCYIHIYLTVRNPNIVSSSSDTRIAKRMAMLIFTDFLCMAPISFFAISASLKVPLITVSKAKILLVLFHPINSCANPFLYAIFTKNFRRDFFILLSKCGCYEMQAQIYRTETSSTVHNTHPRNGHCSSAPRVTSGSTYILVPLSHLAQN
- assay_name: hFSHRago (CHO luc): agonistic activity at the human FSH receptor expressed in CHO cells, CRE-luciferase reporter
- condition_details: CHO cells stably transfected with human FSH receptor and CRE/luciferase reporter; 4 hours of incubation
pEC50: −log10 of the molar value.
Measured pEC50 of individual entries
measurement_type: pEC50

| compound | target_system | value_measured |
| --- | --- | --- |
| COc1cc2c(cc1Oc1ncccn1)-c1c(-c3cccs3)cc(C(=O)N(C)C(C)(C)C)n1CC2 | human FSH receptor (Homo sapiens, UniProt P23945) | 7.72 |
| COc1cc2c(cc1-c1cn[nH]c1)-c1c(-c3cccs3)cc(C(=O)N(C)C(C)(C)C)n1CC2 | human FSH receptor (Homo sapiens, UniProt P23945) | 8.96 |
| COc1cc2c(cc1NC(=O)C(C)C)-c1c(-c3cccs3)cc(C(=O)N3CCCC3(C)C)n1CC2 | human FSH receptor (Homo sapiens, UniProt P23945) | 8.43 |
| COc1cc2c(cc1OC(C)C)-c1c(-c3cccs3)cc(C(=O)N3C[C@H]4C[C@@H](N(C)C(C)=O)C[C@H]4C3)n1CC2 | human FSH receptor (Homo sapiens, UniProt P23945) | 6.76 |
| COc1cc2c(cc1N1CCN(C(C)=O)CC1)-c1c(-c3cccs3)cc(C(=O)N(C)C(C)(C)C)n1CC2 | human FSH receptor (Homo sapiens, UniProt P23945) | 6.17 |
| COc1cc2c(cc1Oc1cccc(F)c1)-c1c(-c3cccs3)cc(C(=O)N(C)C(C)(C)C)n1CC2 | human FSH receptor (Homo sapiens, UniProt P23945) | 7.79 |
| COc1cc2c(cc1OC1CCCCO1)-c1c(-c3cccs3)cc(C(=O)N(C)C(C)(C)C)n1CC2 (stereo not shown) | human FSH receptor (Homo sapiens, UniProt P23945) | 8.16 |
